Data origin, for the record: patent US20230126411A1

Measurement notes: T1 inversion recovery NMR of lactate isotopomers, HDO and standards in cell media
Assay type: physicochemical
Particulars: 1H-NMR 600.23 MHz, 2H-decoupling on, 25° C., cell medium
Readout: proton T1 relaxation time (s)

Compound: CC(O)C(=O)O (stereo not shown) [lactate-CH3]
Recorded measurement: 1.85

Compound: [2H]C([2H])C(O)C(=O)O (stereo not shown) [Lactate-CHD2]
Recorded measurement: 4.21

(P) [2H]CC(O)C(=O)O (stereo not shown) [Lactate-CH2D]
(Q) c1cnccn1 [pyrazine, Pyrazine, reference compound]
Between the entries labeled P and Q , whose measured proton T1 relaxation time is lower? Your answer should be the label of the entry you select.
P
